Hello, the source for this data is patent US20210355194A1, in case you need it.

# TARGET_ENTITY: SARS-CoV-2 spike on live SARS-CoV-2 virus (SARS-CoV-2, UniProt P0DTC2 14-1273)
# PROTOCOL_NOTES: cell-based or functional assay
Reported EC80 by item:

BINDER: variant 5-47 (Fc fusion) VHH: EVQLVESGGGLVQPGGSLRLSCAASGFTFGSYDMGWFRQAPGKEREFVTAINWSGARTAYADSVKGRFTISADNSKNTAYLQMNSLKPEDTAVYYCAARSVYSYEYNWGQGTLVTVSS
UNIT_TEXT: µg/mL
EC80: 2.46
--
BINDER: variant 5-8 (Fc fusion) VHH: EVQLVESGGGLVQPGGSLRLSCAASGRPFSEYTMGWFRQAPGKEREFVSSIHWGGRGTNYADSVKGRFTISADNSKNTAYLQMNSLKPEDTAVYYCAAELHSSDYTSPGAYAWGQGTLVTVSS
UNIT_TEXT: µg/mL
EC80: 15.8
--
BINDER: variant 5-63 (Fc fusion) VHH: EVQLVESGGGLVQPGGSLRLSCAASGFSLDYYDMGWFRQAPGKEREFVAALGWSGGSTDYADSVKGRFTISADNSKNTAYLQMNSLKPEDTAVYYCAAGNGGRYGIVERWGQGTLVTVSS
UNIT_TEXT: µg/mL
EC80: 14.2
